- system.name: UniProt P04150
- procedure.details: Antagonist activity at human GRalpha expressed in HEK293 cells assessed as inhibition of dexamethasone-induced response at 30 uM after 24 hrs by luciferase reporter gene assay relative to control
- Assay type: cell-based
Activity calls are given as the source filed them. The calls are words filed in the database; no cut-off is given here.
quantity.name: inhibition

Below are worked cases with known answers.
>  <chemical.string>
CC(C)(C)c1ccc(CN(c2ccc(Oc3ccccc3)cc2)S(=O)(=O)c2ccc(C#N)cc2)cc1

>  <system.name>
UniProt P04150

>  <measured.result>
inactive

$$$$
>  <chemical.string>
COc1ccc(Oc2ccc(N(Cc3ccccc3)S(=O)(=O)c3ccc(C#N)cc3)cc2)cc1

>  <system.name>
UniProt P04150

>  <measured.result>
< 50%

$$$$
>  <chemical.string>
O=S(=O)(c1ccc(C(F)(F)F)cc1)N(Cc1ccccc1)c1ccc(Oc2ccccc2)cc1

>  <system.name>
UniProt P04150

>  <measured.result>
< 50%

$$$$
>  <chemical.string>
N#Cc1ccc(S(=O)(=O)N(CCc2ccccc2)c2ccc(Oc3ccccc3)cc2)cc1

>  <system.name>
UniProt P04150

>  <measured.result>
< 50%

$$$$
>  <chemical.string>
N#Cc1ccc(S(=O)(=O)N(Cc2ccc3ccccc3c2)c2ccc(Oc3ccccc3)cc2)cc1

>  <system.name>
UniProt P04150

>  <measured.result>
< 50%

$$$$
>  <chemical.string>
N#Cc1cccc(S(=O)(=O)N(Cc2ccccc2)c2ccc(Oc3ccccc3)cc2)c1

>  <system.name>
UniProt P04150

>  <measured.result>
inactive

$$$$
>  <chemical.string>
N#Cc1ccc(S(=O)(=O)N(Cc2ccc(Cl)cc2)c2ccc(Oc3ccccc3)cc2)cc1

>  <system.name>
UniProt P04150

>  <measured.result>
< 50%

$$$$
>  <chemical.string>
N#Cc1ccc(S(=O)(=O)N(CCCc2ccccc2)c2ccc(Oc3ccccc3)cc2)cc1

>  <system.name>
UniProt P04150

>  <measured.result>
< 50%

$$$$

Supply inhibition value. Item: N#Cc1ccc(S(=O)(=O)N(Cc2ccc(F)cc2)c2ccc(Oc3ccccc3)cc2)cc1
< 50%

---

- system.name: Glucocorticoid receptor (Homo sapiens)
- Sequence (P04150 whole entry): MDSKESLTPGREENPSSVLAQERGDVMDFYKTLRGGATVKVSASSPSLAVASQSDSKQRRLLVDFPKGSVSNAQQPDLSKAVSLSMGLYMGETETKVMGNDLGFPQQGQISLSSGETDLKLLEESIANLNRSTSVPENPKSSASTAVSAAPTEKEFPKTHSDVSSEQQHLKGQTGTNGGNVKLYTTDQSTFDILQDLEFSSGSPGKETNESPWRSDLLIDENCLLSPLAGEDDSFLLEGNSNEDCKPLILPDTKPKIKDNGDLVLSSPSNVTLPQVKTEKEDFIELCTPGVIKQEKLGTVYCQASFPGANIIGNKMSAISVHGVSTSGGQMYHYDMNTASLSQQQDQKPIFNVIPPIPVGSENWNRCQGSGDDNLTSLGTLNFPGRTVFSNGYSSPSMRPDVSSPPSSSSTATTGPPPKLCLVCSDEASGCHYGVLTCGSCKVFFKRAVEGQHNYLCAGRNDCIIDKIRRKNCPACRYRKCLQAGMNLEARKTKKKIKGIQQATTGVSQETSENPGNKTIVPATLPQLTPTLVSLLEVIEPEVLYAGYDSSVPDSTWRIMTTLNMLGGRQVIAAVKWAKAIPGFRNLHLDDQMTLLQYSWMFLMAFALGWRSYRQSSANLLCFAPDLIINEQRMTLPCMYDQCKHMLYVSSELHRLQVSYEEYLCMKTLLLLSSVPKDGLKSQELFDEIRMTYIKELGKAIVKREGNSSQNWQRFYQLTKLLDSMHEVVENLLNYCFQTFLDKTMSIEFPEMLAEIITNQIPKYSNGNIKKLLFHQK
- procedure.details: Antagonist activity at human GRalpha expressed in HEK293 cells assessed as inhibition of dexamethasone-induced response after 24 hrs by luciferase reporter gene assay
// pIC50 lookup, one value per entry
pIC50 is a log-scale quantity: -log10 of the concentration expressed in molar.

Below are worked cases with known answers.
>  <chemical.string>
COc1ccc(S(=O)(=O)N(Cc2ccccc2)c2ccc(Oc3ccccc3)cc2)cc1

>  <pIC50>
5.73

$$$$
>  <chemical.string>
O=S(=O)(c1ccc(Cl)cc1)N(Cc1ccccc1)c1ccc(Oc2ccccc2)cc1

>  <pIC50>
5.62

$$$$
>  <chemical.string>
CC(=O)Nc1ccc(S(=O)(=O)N(Cc2ccccc2)c2ccc(Oc3ccccc3)cc2)cc1

>  <pIC50>
5.71

$$$$

The record that follows has no pIC50 shown yet.
Supply pIC50 value. Item: O=S(=O)(c1ccc(OC(F)(F)F)cc1)N(Cc1ccccc1)c1ccc(Oc2ccccc2)cc1
5.13

---

- system.name: Glucocorticoid receptor (Homo sapiens, UniProt P04150)
- procedure.details: Antagonist activity at human GRalpha expressed in HEK293 cells assessed as inhibition of dexamethasone-induced response after 24 hrs by luciferase reporter gene assay
- Format: cell-based
quantity.name: IC50

>  <chemical.string>
O=S(=O)(c1ccc(Br)cc1)N(Cc1ccccc1)c1ccc(Oc2ccccc2)cc1

>  <IC50>
> 30 µM

$$$$
>  <chemical.string>
N#Cc1ccc(S(=O)(=O)N(Cc2ccccc2Cl)c2ccc(Oc3ccccc3)cc2)cc1

>  <IC50>
> 30 µM

$$$$
>  <chemical.string>
O=S(=O)(Nc1ccc(Oc2ccccc2)cc1)c1cccc(C(F)(F)F)c1

>  <IC50>
11.7 µM

$$$$
>  <chemical.string>
O=S(=O)(c1ccc(F)cc1)N(Cc1ccccc1)c1ccc(Oc2ccccc2)cc1

>  <IC50>
2.04 µM

$$$$
>  <chemical.string>
N#Cc1ccc(S(=O)(=O)N(Cc2cccc3ccccc23)c2ccc(Oc3ccccc3)cc2)cc1

>  <IC50>
> 30 µM

$$$$

Supply IC50 value. Item: COc1ccc(Oc2ccc(N(Cc3ccccc3)S(=O)(=O)c3ccc(C#N)cc3)cc2)cc1
> 30 µM

Supply IC50 value. Item: N#Cc1ccc(S(=O)(=O)N(CCc2ccccc2)c2ccc(Oc3ccccc3)cc2)cc1
> 30 µM

Supply IC50 value. Item: O=S(=O)(c1ccc(S(F)(F)(F)(F)F)cc1)N(Cc1ccccc1)c1ccc(Oc2ccccc2)cc1
> 30 µM

Supply IC50 value. Item: Cc1ccc(CN(c2ccc(Oc3ccccc3)cc2)S(=O)(=O)c2ccc(C#N)cc2)cc1
> 30 µM

---

- system.name: Glucocorticoid receptor (Homo sapiens)
- procedure.details: Antagonist activity at human GRalpha expressed in HEK293 cells assessed as inhibition of dexamethasone-induced response after 24 hrs by luciferase reporter gene assay
// pIC50 lookup, one value per entry
pIC50 is a log-scale quantity: -log10 of the concentration expressed in molar.

Below are worked cases with known answers.
>  <chemical.string>
O=[N+]([O-])c1ccc(S(=O)(=O)N(Cc2ccccc2)c2ccc(Oc3ccccc3)cc2)cc1

>  <quantity.name>
pIC50

>  <measured.result>
5.24

$$$$
>  <chemical.string>
O=S(=O)(c1ccccc1)N(Cc1ccccc1)c1ccc(Oc2ccccc2)cc1

>  <quantity.name>
pIC50

>  <measured.result>
5.44

$$$$
>  <chemical.string>
N#Cc1ccc(S(=O)(=O)N(Cc2ccccc2)c2ccc(Oc3ccccc3)cc2)cc1

>  <quantity.name>
pIC50

>  <measured.result>
5.84

$$$$

Supply pIC50 value. Item: N#Cc1ccc(S(=O)(=O)N(Cc2cccc(Cl)c2)c2ccc(Oc3ccccc3)cc2)cc1
5.27

Source listed as ChEMBL document CHEMBL4033684.
